Measured JAK3/AurA Fold Selectivity of individual entries
Target: Aurora A (Homo sapiens)
Construct: cell lysates from Jurkat cells (ATCC TIB-152) used; endogenous in cells; host or cells: Jurkat cells (ATCC TIB-152), treated with pervanadate
Sequence (O14965 whole entry): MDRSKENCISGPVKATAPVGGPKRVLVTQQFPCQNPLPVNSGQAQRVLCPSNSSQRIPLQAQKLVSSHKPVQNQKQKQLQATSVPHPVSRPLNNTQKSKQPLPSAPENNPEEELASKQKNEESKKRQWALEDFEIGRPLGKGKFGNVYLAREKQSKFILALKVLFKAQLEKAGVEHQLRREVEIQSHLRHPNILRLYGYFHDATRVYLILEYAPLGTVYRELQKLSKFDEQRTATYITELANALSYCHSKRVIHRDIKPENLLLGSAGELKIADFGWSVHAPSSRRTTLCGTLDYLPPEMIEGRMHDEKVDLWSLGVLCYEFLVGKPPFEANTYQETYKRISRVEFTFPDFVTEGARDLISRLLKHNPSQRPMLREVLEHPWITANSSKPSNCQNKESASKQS
Assay: Kinobeads assay, Aurora A
Format: binding

molecule: Cn1cc(Nc2ncc3cnn(Cc4cccc(C5CCOCC5)c4)c3n2)cn1 [Example 9]
JAK3/AurA Fold Selectivity: 10-50 Fold
//
molecule: C[C@H]1COCCN1c1cccc(Cn2ncc3cnc(Nc4cnn(C)c4)nc32)c1 [Example 112]
JAK3/AurA Fold Selectivity: 10-50 Fold
//
molecule: COC1CN(c2cccc(Cn3ncc4cnc(Nc5cnn(C)c5)nc43)c2)C1 [Example 65]
JAK3/AurA Fold Selectivity: >50 Fold
//
molecule: CN(C)CCCn1cc(Nc2ncc3cnn(Cc4c(F)c(F)cc(N5CCOCC5=O)c4F)c3n2)cn1 [Example 70]
JAK3/AurA Fold Selectivity: >50 Fold
//
molecule: CNCCCn1cc(Nc2ncc3cnn(Cc4cc(F)cc(N5CCOCC5=O)c4)c3n2)cn1 [Example 99]
JAK3/AurA Fold Selectivity: 3-10 Fold
//
molecule: O=C(Cn1cc(Nc2ncc3cnn(Cc4cc(F)cc(N5CCOCC5=O)c4)c3n2)cn1)N1CCNCC1 [Example 109]
JAK3/AurA Fold Selectivity: 3-10 Fold
//
molecule: Cn1cc(Nc2ncc3cnn(Cc4cc(F)cc(-c5cnn(C)c5)c4)c3n2)cn1 [Example 125]
JAK3/AurA Fold Selectivity: 10-50 Fold
//
molecule: Cn1cc(Nc2ncc3cnn(Cc4c(F)ccc(N5CCNCC5=O)c4F)c3n2)cn1 [Example 76]
JAK3/AurA Fold Selectivity: 3-10 Fold
//
molecule: Cn1cc(Nc2ncc3cnn(Cc4cccc(NC5COC5)c4)c3n2)cn1 [Example 114]
JAK3/AurA Fold Selectivity: 3-10 Fold
//
molecule: Cn1cc(-c2cc(F)c(F)c(Cn3ncc4cnc(Nc5cnn(CCO)c5)nc43)c2)cn1 [Example 127]
JAK3/AurA Fold Selectivity: 10-50 Fold
//
molecule: CC(C)n1cc(-c2cccc(Cn3ncc4cnc(Nc5cnn(C)c5)nc43)c2)cn1 [Example 117]
JAK3/AurA Fold Selectivity: 3-10 Fold
//
molecule: Cn1cc(Nc2ncc3cnn(Cc4cc(F)cc(N5CCOCC5=O)c4F)c3n2)cn1 [Example 73]
JAK3/AurA Fold Selectivity: 10-50 Fold
//
molecule: Cn1cc(Nc2ncc3cnn(Cc4cccc(-c5cnn(C)c5)c4F)c3n2)cn1 [Example 123]
JAK3/AurA Fold Selectivity: 10-50 Fold
//
molecule: Cn1cc(Nc2ncc3cnn(Cc4cccc(N5CCOCC5)n4)c3n2)cn1 [Example 3]
JAK3/AurA Fold Selectivity: 10-50 Fold
//
molecule: Cn1cc(Nc2ncc3cnn(Cc4cc(F)cc(N5CCNCC5)c4F)c3n2)cn1 [Example 95]
JAK3/AurA Fold Selectivity: 10-50 Fold
//
molecule: O=C1COCCN1c1cc(F)cc(Cn2ncc3cnc(Nc4cnn(C5CCNCC5)c4)nc32)c1 [Example 102]
JAK3/AurA Fold Selectivity: 10-50 Fold
//
molecule: Cn1cc(Nc2ncc3cnn(Cc4cc(F)cc(N5CCNCC5)c4)c3n2)cn1 [Example 92]
JAK3/AurA Fold Selectivity: 10-50 Fold
//
molecule: CN1CCN(c2cccc(Cn3ncc4cnc(Nc5cnn(C)c5)nc43)c2)CC1 [Example 10]
JAK3/AurA Fold Selectivity: 3-10 Fold
//
molecule: N#CCCn1cc(Nc2ncc3cnn(Cc4cc(F)cc(N5CCOCC5=O)c4)c3n2)cn1 [Example 107]
JAK3/AurA Fold Selectivity: 3-10 Fold
//
molecule: Cn1cc(Nc2ncc3cnn(Cc4cccc(N5CCCCC5)c4)c3n2)cn1 [Example 8]
JAK3/AurA Fold Selectivity: 10-50 Fold
//
molecule: Cn1cc(Nc2ncc3cnn(Cc4c(F)c(F)cc(N5CCNCC5)c4F)c3n2)cn1 [Example 66]
JAK3/AurA Fold Selectivity: 10-50 Fold
//
molecule: c1cc(Cn2ncc3cnc(Nc4cnn(CC5CCNC5)c4)nc32)cc(N2CCOCC2)c1 (stereo not shown) [Example 60]
JAK3/AurA Fold Selectivity: >50 Fold
//
molecule: O=C1COCCN1c1cc(F)cc(Cn2ncc3cnc(Nc4cn[nH]c4)nc32)c1 [Example 84]
JAK3/AurA Fold Selectivity: >50 Fold
//
molecule: Cn1cc(Nc2ncc3cnn(Cc4cc(F)cc(C(=O)N5CCNCC5)c4)c3n2)cn1 [Example 80]
JAK3/AurA Fold Selectivity: 3-10 Fold
//
molecule: OCCn1cc(Nc2ncc3cnn(Cc4cc(F)cc(N5CCOCC5)c4)c3n2)cn1 [Example 51]
JAK3/AurA Fold Selectivity: 10-50 Fold
//
molecule: Cn1cc(-c2cccc(Cn3ncc4cnc(Nc5cnn(CCO)c5)nc43)c2F)cn1 [Example 124]
JAK3/AurA Fold Selectivity: 10-50 Fold
//
molecule: Fc1cc(N2CCOCC2)c(F)c(Cn2ncc3cnc(Nc4cn[nH]c4)nc32)c1F [Example 81]
JAK3/AurA Fold Selectivity: >50 Fold
//
molecule: OCCn1cc(Nc2ncc3cnn(Cc4cc(F)cc(N5CCNCC5)c4)c3n2)cn1 [Example 93]
JAK3/AurA Fold Selectivity: 10-50 Fold

Data provenance is patent US9040545B2.
